# Test system: Mus musculus
# TEST_DESCRIPTION: Ratio of the survival time of treated to control animals at dose 20 mg/kg
# Assay type: functional
PROPERTY: T/C
Just the number.

*Q* Supply recorded T/C for O=C1C=CC(=O)c2cc(CBr)ccc21 here.
*A* 0.57

*Q* Supply recorded T/C for CNC(=O)OCC1=CC(=O)c2ccccc2C1=O here.
*A* 0.51

*Q* Supply recorded T/C for O=C1C=C(CCl)C(=O)c2ccccc21 here.
*A* 1.3

*Q* Supply recorded T/C for Cc1ccc2c(c1)C(=O)C=CC2=O here.
*A* 0.26

*Q* Supply recorded T/C for CS(=O)(=O)OCC1=CC(=O)c2ccccc2C1=O here.
*A* 1.41

*Q* Supply recorded T/C for O=C(NCCCl)OCc1ccc2c(c1)C(=O)C=CC2=O here.
*A* 0.5

Next:
*Q* Supply recorded T/C for CCOCc1ccc2c(c1)C(=O)C=CC2=O here.
*A* 0.42

*Q* Supply recorded T/C for CC(=O)OCC1=CC(=O)c2ccccc2C1=O here.
*A* 0.7

*Q* Supply recorded T/C for CC1=CC(=O)c2ccccc2C1=O [MENADIONE] here.
*A* 1.34

*Q* Supply recorded T/C for CNC(=O)OCc1ccc2c(c1)C(=O)C=CC2=O here.
*A* 0.81

*Q* Supply recorded T/C for O=C1C=CC(=O)c2cc(CCl)ccc21 here.
*A* 0.22

*Q* Supply recorded T/C for Cc1ccc(S(=O)(=O)OCc2ccc3c(c2)C(=O)C=CC3=O)cc1 here.
*A* 1.64

*Q* Supply recorded T/C for CS(=O)(=O)OCc1ccc2c(c1)C(=O)C=CC2=O here.
*A* 1.44

*Q* Supply recorded T/C for O=C1C=C(CO)C(=O)c2ccccc21 here.
*A* 0.22

====

# System: Mus musculus
# TEST_DESCRIPTION: Ratio of the survival time of treated to control animals at dose 5 mg/kg
# Type: functional
PROPERTY: T/C
Just the number.

Guide cases for T/C, answers given:
*Q* Supply recorded T/C for Cc1ccc2c(c1)C(=O)C=CC2=O here.
*A* 1.09

*Q* Supply recorded T/C for Cc1ccc(S(=O)(=O)OCc2ccc3c(c2)C(=O)C=CC3=O)cc1 here.
*A* 1.44

*Q* Supply recorded T/C for O=C(NCCCl)OCc1ccc2c(c1)C(=O)C=CC2=O here.
*A* 1.47

Next:
*Q* Supply recorded T/C for O=C1C=C(CO)C(=O)c2ccccc21 here.
*A* 1.16

*Q* Supply recorded T/C for CNC(=O)OCC1=CC(=O)c2ccccc2C1=O here.
*A* 1.39

====

# System: Mus musculus
# TEST_DESCRIPTION: Ratio of the survival time of treated to control animals at dose 20 mg/kg
# Assay type: functional
PROPERTY: T/C
Just the number.

Guide cases for T/C, answers given:
*Q* Supply recorded T/C for O=C1C=C(CBr)C(=O)c2ccccc21 here.
*A* 1.69

*Q* Supply recorded T/C for COCC1=CC(=O)c2ccccc2C1=O here.
*A* 1.07

Next:
*Q* Supply recorded T/C for CC(=O)OCc1ccc2c(c1)C(=O)C=CC2=O here.
*A* 0.48

*Q* Supply recorded T/C for O=C(NCCCl)OCC1=CC(=O)c2ccccc2C1=O here.
*A* 1.96

*Q* Supply recorded T/C for Cc1ccc(S(=O)(=O)OCC2=CC(=O)c3ccccc3C2=O)cc1 here.
*A* 1.62

Where these numbers come from: ChEMBL document CHEMBL1122080
